Target: KRAS (WT)::CRAF protein::protein interaction (Homo sapiens (Human), UniProt P01116)
Sequence (P01116 other isoform, or with tags, fused parts or gaps): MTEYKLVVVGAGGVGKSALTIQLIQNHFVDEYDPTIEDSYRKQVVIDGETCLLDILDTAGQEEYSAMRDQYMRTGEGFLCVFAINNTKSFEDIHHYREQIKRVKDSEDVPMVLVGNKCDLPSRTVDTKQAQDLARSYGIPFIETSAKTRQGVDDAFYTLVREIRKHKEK
Assay: KRAS TR-FRET assay (KRAS WT::CRAF, GTP)
Label yes (1) when IC50 < 50 nM; otherwise no (0).

{"compound": "Cc1cc2c(O[C@@H](C)[C@@H]3CCCN3C)nc(-c3onc4c3CCC[C@@]43CCCc4sc(N)c(C#N)c43)nc2n1[C@@H]1CCOC1 [I-40]", "assayedTarget": "KRAS (WT)::CRAF protein::protein interaction (Homo sapiens (Human), UniProt P01116)", "class": "no (0)"}
{"compound": "C[C@H](Oc1nc(-c2noc3c2CCC[C@@]32CCCc3sc(N)c(C#N)c32)nc2c1n(C)c(=O)n2[C@@H]1CCOC1)[C@@H]1CCCN1C [II-2]", "assayedTarget": "KRAS (WT)::CRAF protein::protein interaction (Homo sapiens (Human), UniProt P01116)", "class": "no (0)"}
{"compound": "C[C@H](Oc1nc(-c2noc3c2CCC[C@@]32CCCc3sc(N)c(C#N)c32)nc2c1COC[C@]21CCOC1)[C@@H]1CCCN1C [II-8]", "assayedTarget": "KRAS (WT)::CRAF protein::protein interaction (Homo sapiens (Human), UniProt P01116)", "class": "yes (1)"}
{"compound": "C[C@H](Oc1nc(-c2onc3c2CCC[C@@]32CCCc3sc(N)c(C#N)c32)nc2c1n(C)c(=O)n2[C@@H]1CCCOC1)[C@@H]1CCCN1C [I-12]", "assayedTarget": "KRAS (WT)::CRAF protein::protein interaction (Homo sapiens (Human), UniProt P01116)", "class": "yes (1)"}
{"compound": "C[C@H](Oc1nc(-c2onc3c2CCC[C@@]32CCCc3sc(N)c(C#N)c32)nc2c1COC[C@]21CCOC1)[C@@H]1CCCN1C [I-54]", "assayedTarget": "KRAS (WT)::CRAF protein::protein interaction (Homo sapiens (Human), UniProt P01116)", "class": "yes (1)"}
{"compound": "C[C@H](Oc1nc(-c2onc3c2CCC[C@@]32CCCc3sc(N)c(C#N)c32)nc2c1n(C)c(=O)n2[C@@]12COC[C@@H]1C2)[C@@H]1CCCN1C [I-29]", "assayedTarget": "KRAS (WT)::CRAF protein::protein interaction (Homo sapiens (Human), UniProt P01116)", "class": "yes (1)"}
{"compound": "C[C@H](Oc1nc(-c2noc3c2CCC[C@@]32CCCc3sc(N)c(C#N)c32)nc2c1CNC[C@]21CCOC1)[C@@H]1CCCN1C [II-15]", "assayedTarget": "KRAS (WT)::CRAF protein::protein interaction (Homo sapiens (Human), UniProt P01116)", "class": "yes (1)"}
{"compound": "Cc1cn([C@@H]2CCOC2)c2nc(-c3onc4c3CCC[C@@]43CCCc4sc(N)c(C#N)c43)nc(O[C@@H](C)[C@@H]3CCCN3C)c12 [I-41]", "assayedTarget": "KRAS (WT)::CRAF protein::protein interaction (Homo sapiens (Human), UniProt P01116)", "class": "no (0)"}
{"compound": "C[C@H](Oc1nc(-c2noc3c2CCC[C@@]32CCCc3sc(N)c(C#N)c32)nc2c1COC[C@@]21CCOC1)[C@@H]1CCCN1C [II-9a]", "assayedTarget": "KRAS (WT)::CRAF protein::protein interaction (Homo sapiens (Human), UniProt P01116)", "class": "no (0)"}
{"compound": "C[C@H](Oc1nc(-c2onc3c2CCC[C@@]32CCCc3sc(N)c(C#N)c32)nc2c1n(C)c(=O)n2[C@@H]1CCOC1)[C@@H]1C[C@H](F)CN1C [I-27]", "assayedTarget": "KRAS (WT)::CRAF protein::protein interaction (Homo sapiens (Human), UniProt P01116)", "class": "no (0)"}
{"compound": "CCn1c(=O)n([C@@H]2CCCOC2)c2nc(-c3onc4c3CCC[C@@]43CCCc4sc(N)c(C#N)c43)nc(O[C@@H](C)[C@@H]3CCCN3C)c21 [I-30]", "assayedTarget": "KRAS (WT)::CRAF protein::protein interaction (Homo sapiens (Human), UniProt P01116)", "class": "no (0)"}
{"compound": "C[C@H](Oc1nc(-c2noc3c2CCC[C@@]32CCCc3sc(N)c(C#N)c32)nc2c1CC[C@]21CNCCO1)[C@@H]1C[C@@H](F)CN1C [II-20]", "assayedTarget": "KRAS (WT)::CRAF protein::protein interaction (Homo sapiens (Human), UniProt P01116)", "class": "no (0)"}
{"compound": "COCCn1c(=O)n(C)c2c(O[C@@H](C)[C@@H]3CCCN3C)nc(-c3onc4c3CCC[C@@]43CCCc4sc(N)c(C#N)c43)nc21 [I-7]", "assayedTarget": "KRAS (WT)::CRAF protein::protein interaction (Homo sapiens (Human), UniProt P01116)", "class": "no (0)"}
{"compound": "C[C@H](Oc1nc(-c2onc3c2CCC[C@@]32CCCc3sc(N)c(C#N)c32)nc2c1n(C)c(=O)n2[C@@H]1CCOC1)[C@@H]1C[C@@H](F)CN1C [I-22]", "assayedTarget": "KRAS (WT)::CRAF protein::protein interaction (Homo sapiens (Human), UniProt P01116)", "class": "no (0)"}
